# Test system: Staphylococcus aureus
# test_method_notes: Antibacterial activity against Staphylococcus aureus MRSA ATCC 43300 (CO-ADD:GP_020); MIC in CAMBH media using NBS plates, by Resazurin F(560/590)
# Type: functional
# condition: Concentration 20 uM, ASSAY_TEST Inhibition of Bacterial Growth, detection method Resazurin, Fluorescence (ex560/em590), MEDIA CAMHB, plate type 384well, CORNING #3640, time 18 hr
# Inhibition annotations
Report the value in % with no unit label.

Please review the entries below; each comes with its answer.
NCCN1CCNCC1    -1.38
CC(=O)Nc1c(C)cc(OCC(=O)O)cc1C    2.34
C(=N\N=c1/nnn(Cc2ccccc2)[nH]1)/c1ccccc1    11.96
Clc1ccc(-c2c(C3=NCCCN3)nnn2-c2ccc(Cl)cc2)cc1    10.56
Nc1ccc(/N=N/c2ccc(O)cc2)c(N)n1    -3.88
Nc1nc(N)c(/C=N/c2ccc(Br)cc2)c(Nc2ccc(Br)cc2)n1    -2.53
COc1ccccc1C1OC2=Nc3cc([N+](=O)[O-])ccc3NC2=C1O (stereo not drawn)    8.5
Oc1ccc(/N=N/c2ccccc2)c(O)c1/N=N/c1ccccc1    -22.17

Using known records, supply Inhibition for Nc1ccccc1SC1CC(=O)N(c2ccccc2Cl)C1=O (stereo not drawn)
-6.84

###

# Tested on: Klebsiella pneumoniae
# condition: Concentration 20 uM; ASSAY_TEST Inhibition of Bacterial Growth; detection method Absorption (OD600); MEDIA CAMHB; plate type 384well; NBS; CORNING #3640; time 18 hr
# Description: Antibacterial activity against Klebsiella pneumoniae MDR ATCC 70063 (CO-ADD:GN_003); MIC in CAMBH media using NBS plates, by OD(600)
Measured potencies and affinities stand elsewhere.
metric: Inhibition (%)
Write it as a number; the unit % goes unstated.

Quote Inhibition with test system Klebsiella pneumoniae for CCCCC(=O)N1CCCC(C)C1 (centres undefined)
-3.93

###

# System: Acinetobacter baumannii
# test_method_notes: Antibacterial activity against Acinetobacter baumannii ATCC 19606 (CO-ADD:GN_034); MIC in CAMBH media using NBS plates, by Resazurin F(560/590)
# Type: functional
# condition: Concentration 20 uM, ASSAY_TEST Inhibition of Bacterial Growth, detection method Resazurin, Fluorescence (ex560/em590), MEDIA CAMHB, plate type 384well, CORNING #3640, time 18 hr
metric: Inhibition (%)
# unit: % | format: bare number

CN(C)CC1C2CCC(C2)C1O (centres undefined)    -12.67

Respond only with Inhibition recorded for `Nc1nc(N)nc(-c2ccccc2-c2nc(N)nc(N)n2)n1`
8.5

Dear colleague, please send me the reported Inhibition for `Oc1ccc(/N=N/c2nccs2)c(O)c1` when you can.
12.54

Identify measured Inhibition associated with `O=C(O)/C=C/C(=O)Nc1cccc2cccnc12`
-0.12

Supply recorded Inhibition for `COC(=O)Cc1[nH]c(Cl)nc1C(N)=O` here.
-11.06

Supply Inhibition value. Item: `COc1ccc(/C(C#N)=C/c2ccccn2)cc1`
-12.49

###

# Test system: Candida albicans
# condition: 20 µM
# Description: Antifungal activity against Candida albicans ATCC 90028 (CO-ADD:FG_001); MIC in YNB media using NBS plates, by OD630
Measured potencies and affinities stand elsewhere.
Could you label it Yes if measured Inhibition is 20% or higher, and No otherwise?

c1ccc(-c2nc(-c3nccc4ccccc34)oc2-c2ccccc2)cc1    No
C/C(=N\O)[C@H]1CC[C@H]2[C@@H]3CC[C@@H]4C/C(=N/O)CC[C@]4(C)[C@H]3[C@@](C)(O)C[C@]12C    No
CC1CO/C(=C2\C(=O)OCC2C)C1 (stereo unspecified)    Yes
O=C(/C=C/c1cccnc1)/C=C/c1cccnc1    Yes
O=C(Nc1ccc(Oc2ccc(NC(=O)Nc3ccccc3Cl)cc2)cc1)Nc1ccccc1Cl    No

Let us examine a further case.
Tell me whether Inhibition is at least 20% here: `Cc1cc(O)c2cc(C(=O)c3ccccc3)ccc2n1`
No

###

# Tested on: Escherichia coli
# test_method_notes: Antibacterial activity against Escherichia coli ATCC 25922 (CO-ADD:GN_001); MIC in CAMBH media using NBS plates, by Resazurin F(560/590)
# Format: functional
# condition: Concentration 20 uM, ASSAY_TEST Inhibition of Bacterial Growth, detection method Resazurin, Fluorescence (ex560/em590), MEDIA CAMHB, plate type 384well, CORNING #3640, time 18 hr
Inhibition listing for selected molecules.
Field format: number, assumed %, no unit text.

Recorded results for 3 molecules are shown here.
C=CCOC(=O)/C=C\C(=O)NC(N)=O    0.88
Oc1cc(CNC2CCCCC2)c(O)cc1CNC1CCCCC1    2.36
CCOP(=O)(OCC)/C(C#N)=C/c1c[nH]c2ccccc12    -1.43

Next molecule, Inhibition to be filled in.
Please tell me the measured Inhibition for `Nc1nc(Cl)cc(Nc2ccccc2Cl)n1` ; system: Escherichia coli.
-7.98

###

# System: Klebsiella pneumoniae
# condition: Concentration 20 uM; ASSAY_TEST Inhibition of Bacterial Growth; detection method Absorption (OD600); MEDIA CAMHB; plate type 384well; NBS; CORNING #3640; time 18 hr
Results with a measured potency or affinity are listed apart.
Collected Inhibition values appear next to each entry.
The figure you give is taken to be in %; do not add the unit.

Known Inhibition results, listed for orientation:
Cc1ccc(NC(=O)N2CCCCC2)cc1[N+](=O)[O-]    3.41
CSc1nsc(NN)n1    8.53
CSc1cccc(NC(=O)Nc2ccccc2C(N)=O)c1    12.71
NC(=O)Nc1n[nH]c(-c2ccccc2)n1    2.72
Cc1cc(O)c2c(C)ccc(C)c2n1    5.25
O[C@@H](c1cc(-c2ccc(C(F)(F)F)cc2)nc(C(F)(F)F)c1)[C@H]1CCCCN1    19.18
Nc1c(Cl)cc(S(N)(=O)=O)cc1S(N)(=O)=O    26.17
Br.CN(C)c1n/c(=N/Cc2ccco2)ss1    27.1

Given the molecule `Cc1ccc(NC(=O)N2CCCCC2)cc1NC(=O)N1CCCCC1` , write its reported Inhibition.
16.93

Answer with the recorded Inhibition for the molecule listed here: `CC1=CC2=C(C=O)C(=O)[C@](C)(O)[C@@H](O)C2=CO1`
9.69

Provide Inhibition value for the following molecule: CC1=C2C3OC(=O)C(C)C3CCC2(C)C=C(Cl)C1=O (stereo unspecified)
10.19

Report Inhibition, nothing else, for this molecule: `CCOC(=O)Cc1cnc(S)nc1O`
8.74

Find the measured Inhibition of `CNC(=O)c1nn(C)c(=O)[nH]c1=O` and report it.
15.09

Provide one value: measured Inhibition of CN1N=C(N)c2cn(C3OC(COP(=O)(O)O)C(O)C3O)c3ncnc1c23 (stereo unspecified)
4.46

Please indicate Inhibition recorded for `Nc1ccc(C(=O)c2cccs2)cn1`
9.25

###

Catalogue of compounds with associated Inhibition
# System: Staphylococcus aureus
# test_method_notes: Antibacterial activity against Staphylococcus aureus MRSA ATCC 43300 (CO-ADD:GP_020); MIC in CAMBH media using NBS plates, by Resazurin F(560/590)
# Assay type: functional
# condition: Concentration 20 uM, ASSAY_TEST Inhibition of Bacterial Growth, detection method Resazurin, Fluorescence (ex560/em590), MEDIA CAMHB, plate type 384well, CORNING #3640, time 18 hr
Report the figure in % without appending any unit label.

Before answering, review these 10 worked examples.
Cc1nc(N)nc(O)c1CCCNc1ccc(CCC2(CCl)OCCO2)cc1    17.48
Cc1ccc(-c2cssc2=S)cc1    -26.91
Cc1cc2c3ccccc3ncn2n1    14.33
O=C(NN1CCCCC1)NN1CCCCC1    9.98
O=S(=O)(c1ccc2c(c1)CCCN2)N1CCC[C@H]2CCCC[C@@H]21    4.63
C(=C\c1ccc(/C=C/c2ccccc2)nn1)/c1ccccc1    12.1
CC(C)NC(=O)Nc1cccc(Cl)c1    12.4
CCOC(=O)C(C)c1c(C(=O)c2ccc(C)nc2)c2ccccc2n1C (stereo not drawn)    10.11
C=CCNC(=S)N1CCN(c2ccccc2Cl)CC1    6.69
CCC(C)(C)c1ccc(Oc2cccc(C(=O)O)c2)cc1    -8.99

Name the value of Inhibition reported for `Nc1o[nH]c(=O)c1C1CCCCC1` when tested on Staphylococcus aureus.
7.44

Under Staphylococcus aureus, report Inhibition for `O=C(Nc1cccc2ccccc12)c1cc2c(cc1Br)OCO2`
5.22

Find the measured Inhibition of `CSc1nc(O)nnc1Sc1ccccc1` with Staphylococcus aureus as test system.
-5.45

###

# Test system: Escherichia coli
# test_method_notes: Antibacterial activity against Escherichia coli ATCC 25922 (CO-ADD:GN_001); MIC in CAMBH media using NBS plates, by Resazurin F(560/590)
# Type: functional
# condition: Concentration 20 uM, ASSAY_TEST Inhibition of Bacterial Growth, detection method Resazurin, Fluorescence (ex560/em590), MEDIA CAMHB, plate type 384well, CORNING #3640, time 18 hr
metric: Inhibition
Quick note: number first, unit second.

O=C(O)/C=C\c1cc2c(cc1[N+](=O)[O-])OCO2    7.39%
O=C(O)c1nn(-c2ccccc2-c2nnc(O)nc2O)c(=O)[nH]c1=O    9.27%
N=C(N)Nc1nc2cc([N+](=O)[O-])ccc2[nH]1    5.92%
COC(=O)C1=C(C(=O)OC)[C@@H]2CCC[C@H]1[C@H]1[C@@H]2N=NN1c1ccccc1    6.51%

Answer with the recorded Inhibition of `CN(C)c1ccc(/C=C/c2ccc3ccccc3n2)cc1` only.
5.25%

Complete the entry with Inhibition for `Sc1ncnc2c1cnn2-c1ccccc1`
15.12%

Name the recorded Inhibition of the item `O=C1CCC(c2ccccc2)(c2ccccc2)CC1` in your answer.
1.3%

Fill in Inhibition for record `COc1cc(NC(=O)CCl)ccc(=O)c1`
9.48%
